Cited source: patent US8987195B2

- measured_on: HCV NS3/4A protease A156T mutant (Hepatitis C virus genotype 1b, UniProt P26663, A1182T)
- method: HCV NS3/4A protease time-resolved fluorescence (TRF) assay, Ki against A156T mutant
- Assay type: biochemical
- measurement_parameters: NS3/4A protease TRF assay, A156T mutant enzyme 0.4 nM; read-out: IC50 [gt-1b A156T]
readout_kind: pIC50
Answer as the number alone; pIC50 is minus log10 of concentration in mol/L.

See these solved cases before continuing.
{"smiles_str": "COc1cc(Cl)c2nc(C(F)(F)F)c3c(c2c1)CC[C@]1(C[C@H]2C(=O)N[C@]4(C(=O)NS(=O)(=O)C5(C)CC5)C[C@H]4/C=C\\CCCCC[C@H](NC(=O)OCC(C)C)C(=O)N2C1)O3", "pIC50": 8.84}
{"smiles_str": "CCc1nc2ccc(OC)cc2c2c1O[C@]1(CC2)C[C@H]2C(=O)N[C@]3(C(=O)NS(=O)(=O)C4(C)CC4)C[C@H]3/C=C\\CCCCC[C@H](NC(=O)c3cn[nH]c3)C(=O)N2C1", "pIC50": 10.00}
{"smiles_str": "COc1ccc2nc(C(F)(F)F)c3c(c2c1)[C@](C)(O)C[C@]1(C[C@H]2C(=O)N[C@]4(C(=O)NS(=O)(=O)C5(C)CC5)C[C@H]4/C=C\\CCCCC[C@H](NC(=O)OC4(C)CCC4)C(=O)N2C1)O3", "pIC50": 8.63}

Input: Query (compound): "CC(C)(C)COC(=O)N[C@H]1CCCCC/C=C\[C@@H]2C[C@@]2(C(=O)NS(=O)(=O)C2(C)CC2)NC(=O)[C@@H]2C[C@]3(CCc4c(c(C(F)F)nc5ccc(Cl)cc45)O3)CN2C1=O" ; field requested: pIC50
Output: 8.94

Input: Query (compound): "CCc1nc2ccc(OCCCN3CCOCC3)cc2c2c1O[C@]1(CC2)C[C@H]2C(=O)N[C@]3(C(=O)NS(=O)(=O)C4(C)CC4)C[C@H]3/C=C\CCCCC[C@H](NC(=O)OC(C)(C)C)C(=O)N2C1" ; field requested: pIC50
Output: 10.17

Input: Query (compound): "CCc1nc2ccc(OC)cc2c2c1O[C@]1(CC2)C[C@H]2C(=O)N[C@]3(C(=O)NS(=O)(=O)C4(C)CC4)C[C@H]3/C=C\CCCCC[C@H](NC(=O)c3cc(C)cs3)C(=O)N2C1" ; field requested: pIC50
Output: 10.01

Input: Query (compound): "COc1ccc2nc(C)c3c(c2n1)CC[C@]1(C[C@H]2C(=O)N[C@]4(C(=O)NS(=O)(=O)C5(C)CC5)C[C@H]4/C=C\CCCCC[C@H](NC(=O)OCC(C)(C)C)C(=O)N2C1)O3" ; field requested: pIC50
Output: 9.62

Input: Query (compound): "COc1ccc2nc(C(F)(F)F)c3c(c2c1)[C@H](F)C[C@]1(C[C@H]2C(=O)N[C@]4(C(=O)NS(=O)(=O)C5(C)CC5)C[C@H]4/C=C\CCCCC[C@H](NC(=O)OCC(C)C)C(=O)N2C1)O3" ; field requested: pIC50
Output: 9.36

Input: Query (compound): "CC(C)COC(=O)N[C@H]1CCCCC/C=C\[C@@H]2C[C@@]2(C(=O)NS(=O)(=O)C2(C)CC2)NC(=O)[C@@H]2C[C@]3(CCc4c(c(C(F)(F)F)nc5ccc(OCCCN6CCOCC6)cc45)O3)CN2C1=O" ; field requested: pIC50
Output: 9.63

----------
- System: HCV genotype 1b replicon
- method: HCV replicon assay, genotype 1b replicon EC50
- Assay type: cell-based, Hepatitis C virus
- measurement_parameters: Hepatitis C virus, HCV replicon, genotype 1b; read-out: EC50 [gt-1b]
readout_kind: pEC50
Answer as the number alone; pEC50 is minus log10 of concentration in mol/L.

{"smiles_str": "COc1ccc2nc(C)c3c(c2n1)[C@H](F)C[C@]1(C[C@H]2C(=O)N[C@]4(C(=O)NS(=O)(=O)C5(C)CC5)C[C@H]4/C=C\\CCCCC[C@H](NC(=O)OCC(C)(C)C)C(=O)N2C1)O3", "measured_on": "HCV genotype 1b replicon", "pEC50": 8.60}

Input: Query (molecule): "COc1ccc2nc(C(F)(F)F)c3c(c2c1)[C@@H](F)C[C@]1(C[C@H]2C(=O)N[C@]4(C(=O)NS(=O)(=O)C5(C)CC5)C[C@H]4/C=C\CCCCC[C@H](NC(=O)OC(C)(C)C)C(=O)N2C1)O3" ; field requested: pEC50
Output: 7.67

Input: Query (molecule): "CC(C)COC(=O)N[C@H]1CCCCC/C=C\[C@@H]2C[C@@]2(C(=O)NS(=O)(=O)C2(C)CC2)NC(=O)[C@@H]2C[C@]3(CCc4c(c(C(F)F)nc5ccc(Cl)cc45)O3)CN2C1=O" ; field requested: pEC50
Output: 8.01

----------
A collection of compounds and their measured IC50
- measured_on: HCV NS3/4A protease genotype 1b (Hepatitis C virus genotype 1b, UniProt P26663)
- method: HCV NS3/4A protease time-resolved fluorescence (TRF) assay, Ki against genotype 1b
- Type: biochemical
- measurement_parameters: IC50 [gt-1b] (nM), NS3/4A genotype 1b, enzyme 0.2 nM; K+ salt
# output: bare number, implied unit nM

See these solved cases before continuing.
{"compound": "COc1ccc2nc(C)c3c(c2c1)CC[C@]1(C[C@H]2C(=O)N[C@]4(C(=O)NS(=O)(=O)C5(C)CC5)C[C@H]4/C=C\\CCCCC[C@H](NC(=O)OCC(C)(C)C)C(=O)N2C1)O3 [Example 205]", "IC50 (nM)": 0.005}
{"compound": "COc1ccc2c3c(c(C4CC4)nc2c1)O[C@]1(CC3)C[C@H]2C(=O)N[C@]3(C(=O)NS(=O)(=O)C4(C)CC4)C[C@H]3/C=C\\CCCCC[C@H](NC(=O)OC3(C)CC3)C(=O)N2C1 [Example 135]", "IC50 (nM)": 0.037}
{"compound": "COc1ccc2nc(C)c3c(c2c1)C(F)(F)C[C@]1(C[C@H]2C(=O)N[C@]4(C(=O)NS(=O)(=O)C5(C)CC5)C[C@H]4/C=C\\CCCCC[C@H](NC(=O)OC(C)(C)C(F)(F)F)C(=O)N2C1)O3 [Example 265]", "IC50 (nM)": 0.007}

Input: Query (compound): Cc1nc2ccc(OC(F)F)cc2c2c1O[C@]1(CC2)C[C@H]2C(=O)N[C@]3(C(=O)NS(=O)(=O)C4(C)CC4)C[C@H]3/C=C\CCCCC[C@H](NC(=O)OC(C)(C)C(F)(F)F)C(=O)N2C1 [Example 310] ; field requested: IC50
Output: 0.008

Input: Query (compound): Cc1nc2cc(Cl)ccc2c2c1O[C@]1(CC2)C[C@H]2C(=O)N[C@]3(C(=O)NS(=O)(=O)C4(C)CC4)C[C@H]3/C=C\CCCCC[C@H](NC(=O)OC3(C)CC3)C(=O)N2C1 [Example 236] ; field requested: IC50
Output: 0.056

Input: Query (compound): COc1ccc2nc(C)c3c(c2c1)CC[C@]1(C[C@H]2C(=O)N[C@]4(C(=O)NS(=O)(=O)C5(C)CC5)C[C@H]4/C=C\CCCCC[C@H](NC(=O)OC4CCCC4C)C(=O)N2C1)O3 (stereo partly drawn) [Example 200] ; field requested: IC50
Output: 0.005

Input: Query (compound): COc1ccc2nc(C)c3c(c2c1)[C@H](F)C[C@]1(C[C@H]2C(=O)N[C@]4(C(=O)NS(=O)(=O)C5(C)CC5)C[C@H]4/C=C\CCCCC[C@H](NC(=O)O[C@H](C)C(C)C)C(=O)N2C1)O3 [Example 356] ; field requested: IC50
Output: 0.012

Input: Query (compound): COc1ccc2nc(C)c3c(c2c1)CC[C@]1(C[C@H]2C(=O)N[C@]4(C(=O)NS(=O)(=O)C5(C)CC5)C[C@H]4/C=C\CCCCC[C@H](NC(=O)O[C@@H](C)C(C)C)C(=O)N2C1)O3 [Example 215] ; field requested: IC50
Output: 0.005

Input: Query (compound): Cc1nc2ccc(OC(F)F)cc2c2c1O[C@]1(CC2)C[C@H]2C(=O)N[C@]3(C(=O)NS(=O)(=O)C4(C)CC4)C[C@H]3/C=C\CCCCC[C@H](NC(=O)OCC(C)C)C(=O)N2C1 [Example 267] ; field requested: IC50
Output: 0.006

----------
- Test system: HCV genotype 1b replicon
- method: HCV replicon assay, genotype 1b replicon EC50
- Assay type: cell-based, Hepatitis C virus
- measurement_parameters: Hepatitis C virus, HCV replicon, genotype 1b; read-out: EC50 [gt-1b]
readout_kind: log10 of EC50 (log10 of the value in nM)
Log scale reminder: EC50 in nM, then log10 taken.

{"smiles_str": "Cc1ccc2nc(C(F)(F)F)c3c(c2c1)CC[C@]1(C[C@H]2C(=O)N[C@]4(C(=O)NS(=O)(=O)C5(C)CC5)C[C@H]4/C=C\\CCCCC[C@H](NC(=O)OCCCN4CCOCC4)C(=O)N2C1)O3", "log10 of EC50": 1.18}
{"smiles_str": "COc1ccc2nc(C(F)(F)F)c3c(c2c1)CC[C@]1(C[C@H]2C(=O)N[C@]4(C(=O)NS(=O)(=O)C5(C)CC5)C[C@H]4/C=C\\CCCCC[C@H](NC(=O)O[C@@H]4C[C@@H]5C[C@@H]5C4)C(=O)N2C1)O3", "log10 of EC50": 0.15}
{"smiles_str": "Cc1nc2ccc(F)cc2c2c1O[C@]1(CC2)C[C@H]2C(=O)N[C@]3(C(=O)NS(=O)(=O)C4(C)CC4)C[C@H]3/C=C\\CCCCC[C@H](NC(=O)OC(C)(C)C(F)(F)F)C(=O)N2C1", "log10 of EC50": -0.09}
{"smiles_str": "CC[C@H](C)OC(=O)N[C@H]1CCCCC/C=C\\[C@@H]2C[C@@]2(C(=O)NS(=O)(=O)C2(C)CC2)NC(=O)[C@@H]2C[C@]3(CCc4c(c(C5CC5)nc5ccc(OC)cc45)O3)CN2C1=O", "log10 of EC50": 0.24}

Next compound, log10 of EC50 to be filled in.
Input: Query (compound): "CC1(S(=O)(=O)NC(=O)[C@@]23C[C@H]2/C=C\CCCCC[C@H](NC(=O)OC2CCCC2)C(=O)N2C[C@@]4(CCc5c(c(C(F)(F)F)nc6ccc(Cl)cc56)O4)C[C@H]2C(=O)N3)CC1" ; field requested: log10 of EC50
Output: 1.30
